Source of measurements: patent US20170015742A1

Below, each entry is listed with its recorded Kd.
# target.desc: T1, Human VEGF-A 165 (human, UniProt P15692 207-395)
# T1 construct: also called hVEGF165; huVEGF-A165
# protocol.text: Biacore SPR (Example 1.1)
Numeric only. Scale: nM

Below: 3 binders and their reported Kd.
BEW-9E3-B9 (antibody, IgG2a, V domains shown) VH: QIQLVQSGPELKKPGESVKISCKASGYTFTNYGMYWVKQAPGQGLQYMGWINTETGKPTYADDFKGRFVFFLETSASTAFLQINNLKNEDMATYFCARPSDYYDGFWFPYWGQGALVTVSS VL: DTILTQSPALAVSPGERISISCRASEGVNSYMHWYQQNPGQQPKLLIYKASNLASGVPARFSGSGSGTDFTLTIDPVEADDTATYFCQQSWNDPLTFGSGTKLEIK	0.014
BEW-6C2-C8 (antibody, IgG2b, V domains shown) VH: EVQLVESGGGLVQPGSSLKLSCAASGFTFSYYGMHWIRQAPKKGLEWMALIYYDSSKMYYADSVKGRFTISRDNSKNTLYLEMNSLRSEDTAMYYCAAGGTAPVYWGQGVMVTVSS VL: NIQLTQSPSLLSASVGDRVTLSCKGSQNIANYLAWYQQKLGEAPKLLIYNTDSLQTGIPSRFSGSGSGTDYTLTISSLQPEDVATYFCYQSNNGYTFGAGTKLELR	0.012
BED-4G10-C8 (antibody, IgG2b, V domains shown) VH: QVQLQQSGTELVKPGSSVKISCKASGYTFTSNYMHWIRQQPGNGLEWIGWIYPGDGDTNYNHNFNGKATLTADKSSSTAYMQLSSLTSEDFAVYFCASSTRAIPGWFTYWGQGTLVTVSS VL: DTVLTQSPALAVSPGERVSISCWASESVSTLMHWYQQKLGQQPKLLIYGASNLESGVPARFRGSGSGTDFTLTIDPVEADDTATYFCQQSWSDPYTFGAGTKLELK	0.06

// switching to the query binder
Ask: Look up Kd for this binder: BEW-1B10-B9-C3 (antibody, IgG2a, V domains shown) VH: EVQLVESGGGLVQPGRSLKLSCAASGFSFSKYDMAWFRQTPTKGLEWVASITTSGVGTYYRDSVKGRFTVSRDNAKSTLYLQMDSLRSEDTATYYCARGYGAMDAWGQGTSVTVSS VL: DIQMTQSPASLSASLEEIVTITCKASQDIDDYLSWYQQKPGKSPQLVIYAATRLADGVPSRFSGSGSGTQYSLKISRLQVDDSGIYYCLQSSSTPWTFGGGTNLELK
Reply: 0.016
